Form field: CC50 (one value per entry).
Tested on: HCT116 MTAP-deleted cell lines
Assay: Cell viability assay (CellTiter-Glo, 7 days), HCT116 MTAP-deleted
Format: cell-based
Settings: Homo sapiens, HCT-116; cell viability, HCT116 MTAP-deleted; class symbols; read-out: CC50

- COMPOUND: "C[C@@H]1CN(C(=O)c2cc3c(cc2F)nc(N)c2cncn23)[C@H]2c3ccccc3C[C@H]2O1 (racemic)"
  MEASURED VALUE: "100 to 1000 nM"
- COMPOUND: "Cc1ncc2c(N)nc3cc(F)c(C(=O)N(C)[C@@H]4CCc5nc(C(F)(F)F)ccc54)cc3n12"
  MEASURED VALUE: "100 to 1000 nM"
- COMPOUND: "Nc1nc2cc(F)c(C(=O)N3CCO[C@@H]4Cc5cc(C6CC6)ccc5[C@@H]43)cc2n2cncc12"
  MEASURED VALUE: "100 to 1000 nM"
- COMPOUND: "CN(C(=O)c1cc2c(cc1F)nc(N)c1cncn12)[C@@H](c1ccc(C(F)(F)F)cc1F)C(F)F"
  MEASURED VALUE: "< 100 nM"
- COMPOUND: "CC(C)N(Cc1ccc(-c2cnn(-c3cccnc3)c2)cc1F)C(=O)c1cc2c(cc1F)nc(N)c1cncn12"
  MEASURED VALUE: "< 100 nM"

Okay, now this compound:
Lookup: Quick check: CC50 of C[C@H]1CN(C(=O)c2cc3c(cc2F)nc(N)c2cncn23)[C@H]2c3ccc(Br)cc3C[C@H]2O1 ?
Found: < 100 nM
